system: Pseudomonas aeruginosa ATCC 9027; type: cell-based; settings: ATCC 9027, 18 h
Square brackets hold non-standard residues; d marks the D form. Peptide text beside a SMILES is read from it. * marks the point of attachment. Palmitoyl = CCCCCCCCCCCCCCCC(=O)*; Dab = NCC[C@H](N)C(=O)O; Dap = NC[C@H](N)C(=O)O
The molecules listed here are annotated with their MIC, P. aeruginosa.
State the answer as a number, implicitly in µg/mL.

Reference set, count: 4
[[record]]
molecule = "CCCCCCCCCCCCCCCC(=O)NC[C@H](NC(=O)[C@@H](N)CCCCN)C(=O)N[C@@H](CCCCN)C(N)=O [K(DapC16)K-NH2] (H-Lys-[Dap](Palmitoyl)-Lys-NH2)"
property_name = "MIC, P. aeruginosa"
measured_result = 8

[[record]]
molecule = "CCCCCCCCCCCCCCCC(=O)NC[C@H](NC(=O)[C@H](CCCCN)NC(=O)[C@@H](N)CCCCN)C(=O)N[C@@H](CCCCN)C(=O)N[C@@H](CCCCN)C(N)=O [KK(DapC16)KK-NH2] (H-KK[Dap](Palmitoyl)KK-NH2)"
property_name = "MIC, P. aeruginosa"
measured_result = 32

[[record]]
molecule = "CCCCCCCCCCCCCCCC(=O)NCCCC[C@H](NC(=O)[C@@H](N)CCCCN)C(=O)N[C@@H](CCCCN)C(N)=O [K(KC16)K-NH2]"
property_name = "MIC, P. aeruginosa"
measured_result = 16

[[record]]
molecule = "CCCCCCCCCCCCCCCC(=O)NCC[C@H](NC(=O)[C@@H](N)CCCCN)C(=O)N[C@@H](CCCCN)C(N)=O [K(DabC16)K-NH2] (H-Lys-[Dab](Palmitoyl)-Lys-NH2)"
property_name = "MIC, P. aeruginosa"
measured_result = 16


Alright, here's another molecule for you.
Measured MIC, P. aeruginosa for this entry CCCCCCCCCCCCCCCC(=O)NCCCC[C@H](NC(=O)[C@H](CCCCN)NC(=O)[C@@H](N)CCCCN)C(=O)N[C@@H](CCCCN)C(=O)N[C@@H](CCCCN)C(N)=O [KK(KC16)KK-NH2] (H-KKK(Palmitoyl)KK-NH2) on Pseudomonas aeruginosa ATCC 9027: 16

----------
system: HCT-116 human colorectal carcinoma; format: cell-based
Square brackets hold non-standard residues; d marks the D form. Peptide text beside a SMILES is read from it. * marks the point of attachment. Palmitoyl = CCCCCCCCCCCCCCCC(=O)*; Orn = NCCC[C@H](N)C(=O)O; Dab = NCC[C@H](N)C(=O)O; Dap = NC[C@H](N)C(=O)O
property name: IC50, HCT-116 (48h) (µg/mL)
State the answer as a number, implicitly in µg/mL.

[[record]]
compound = "CCCCCCCCCCCCCCCC(=O)NCCCC[C@H](NC(=O)[C@H](CCCCN)NC(=O)[C@@H](N)CCCCN)C(=O)N[C@@H](CCCCN)C(=O)N[C@@H](CCCCN)C(N)=O [KK(KC16)KK-NH2] (H-KKK(Palmitoyl)KK-NH2)"
property_name = "IC50, HCT-116 (48h)"
measured_result = 15.98


IC50, HCT-116 (48h) reading for CCCCCCCCCCCCCCCC(=O)NC[C@H](NC(=O)[C@@H](N)CCCCN)C(=O)N[C@@H](CCCCN)C(N)=O [K(DapC16)K-NH2] (H-Lys-[Dap](Palmitoyl)-Lys-NH2) : 14.90

IC50, HCT-116 (48h) reading for CCCCCCCCCCCCCCCC(=O)NCCC[C@H](NC(=O)[C@H](CCCCN)NC(=O)[C@@H](N)CCCCN)C(=O)N[C@@H](CCCCN)C(=O)N[C@@H](CCCCN)C(N)=O [KK(OC16)KK-NH2] (H-KK[Orn](Palmitoyl)KK-NH2) : 14.90

IC50, HCT-116 (48h) reading for CCCCCCCCCCCCCCCC(=O)NCC[C@H](NC(=O)[C@@H](N)CCCCN)C(=O)N[C@@H](CCCCN)C(N)=O [K(DabC16)K-NH2] (H-Lys-[Dab](Palmitoyl)-Lys-NH2) : 16.79

IC50, HCT-116 (48h) reading for CCCCCCCCCCCCCCCC(=O)NCCCC[C@H](NC(=O)[C@@H](N)CCCCN)C(=O)N[C@@H](CCCCN)C(N)=O [K(KC16)K-NH2] : 20.72
